Data provenance is ChEMBL document CHEMBL1201862.

- Test system: MDA-N
- assay notes: NCI tumour cell line growth inhibition, 48 h
Activity calls are given as the source filed them. No stated cut-off is given here; in the data, active = GI50 up to about 1.1 µM and inactive = higher.
Please reply with one of these outcomes: active, inactive

Look up the recorded call for CC(=O)c1cccc(NC2C(N)C(NC(=O)N(C)C)(C(C)O)C(C)(O)C2(O)COC(=O)c2c(C)cccc2O)c1 (stereo not drawn) in this test.
active

Likewise for NC(Cc1ccc(N(CCCl)CCCl)cc1)C(=O)NC(CCC(=O)O)C(=O)O (stereo not drawn) ?
inactive

Likewise for CCCCCc1cc2c(cc1O)CC[C@@H]1[C@@H]2CC[C@]2(C)[C@@H](O)CC[C@@H]12 ?
inactive

Likewise for COC(=O)C1Cc2ccc(O)c(O)c2CN1 (stereo not drawn) ?
inactive

Likewise for C\C(=N/N=C1/C(=C\N(C)C)C(=O)NC(=O)N1C)c1ccc(Cl)cc1 ?
inactive

Likewise for NC1=CN(CCCO)C2=N/C(=C\c3ccccc3)C(=O)N12 ?
inactive

Likewise for CCC1C(c2cc(OC)c(OC)c(OC)c2)c2cc3c(cc2OC1N1CCCC1)OCO3 (stereo not drawn) ?
active

Likewise for COc1cc([C@@H]2c3cc4c(cc3[C@@H](Nc3ccc([N+](=O)[O-])cc3C(=O)c3ccccc3)[C@H]3COC(=O)[C@H]23)OCO4)cc(OC)c1OC ?
active

Likewise for O=[N+]([O-])c1ccc(/C(=N/c2ccccc2)SS/C(=N\c2ccccc2)c2ccc([N+](=O)[O-])o2)o1 ?
inactive

Likewise for O=C1CCC(CCc2nc3ccccc3[nH]2)(c2ccccc2)C(=O)N1 (stereo not drawn) ?
inactive

Likewise for CC(C)CCC[C@@H](C)[C@H]1CC[C@H]2[C@@H]3CC=C4C[C@@H](OC(=O)c5cccc6c(=O)c7ccccc7[nH]c56)CC[C@]4(C)[C@H]3CC[C@]12C ?
inactive

Likewise for O=C(O)[C@H](Cc1ccccc1)NCCN1CCC[C@H]1C(=O)O ?
inactive

Likewise for CN(C)c1n/c(=N/Cc2ccccc2)ss1 ?
inactive

Likewise for Nc1nc(N)c2nc(CNc3ccc(C(=O)NC(CCCCNC(=O)c4ccccc4C(=O)O)C(=O)O)cc3)cnc2n1 (stereo not drawn) ?
active

Likewise for CC(C)=Nn1cnc2c1=NC(C)(C)NC=2C(N)=O ?
inactive

Likewise for COC1(OC)C[C@H](C)[C@@]23O[C@]24c2cc(O)c5c(c2N[C@H]3C#C/C=C\C#C[C@]14O)C(=O)c1ccccc1C5=O ?
active

Likewise for O=[N+]([O-])c1cc(/C=N/C23CC4CC(CC(C4)C2)C3)ccc1Cl ?
inactive

Likewise for O=[N+]([O-])c1ccc(/C=N/n2c(CO)nc3ccccc32)o1 ?
inactive

Likewise for CC(C)NC(=O)OCc1c(COC(=O)NC(C)C)n(C)c2c1ccc1ccsc12 ?
inactive

Likewise for OC(Cc1cnnc2ccccc12)C(Cl)(Cl)Cl (stereo not drawn) ?
inactive

Likewise for CCOC(=O)c1nc2cc(F)cc(F)c2[nH]c1=O ?
inactive

Likewise for COc1ccc(-c2cc(-c3ccc(Nc4ccnc5cc(Cl)ccc45)cc3)[nH]c(=O)c2C#N)c2ccccc12 ?
inactive

Likewise for CCCC1NC(C#N)(C#N)C(CCC)NC1(C#N)C#N (stereo not drawn) ?
active

* * *

- Test system: SK-MEL-2
- assay notes: NCI tumour cell line growth inhibition, 48 h
Calls of active or inactive are those of the source. Cut-off read from the data, not from the text of the source: active = GI50 up to about 1.1 µM and inactive = higher.
Please reply with one of these outcomes: active, inactive

Look up the recorded call for O=C(Oc1ccc(Cl)cc1[N+](=O)[O-])c1ccccc1 in this test.
inactive

Likewise for COc1ccc(C(C#N)NC23CC4CC(CC(C4)C2)C3)cc1OC (stereo not given) ?
inactive

Likewise for C/C(=N\N)C(CN(C)C)C(c1ccccc1)c1c(O)c2ccccc2oc1=O (stereo not given) ?
inactive

Likewise for CCOC(=O)C1C(c2ccc(O)c(OC)c2)c2c(n[nH]c2O)CC1(C)O (stereo not given) ?
inactive

Likewise for O=C(/C=C/C(=O)N1CCCC1)N1CCCC1 ?
inactive

Likewise for CC(=O)N/C(=C\c1cccc([N+](=O)[O-])c1)c1nc2ccc3c(c2[nH]1)C(=O)c1ccccc1C3=O ?
inactive

Likewise for Cc1ccc(CC(Cc2ccc(C)cc2C(=O)O)C(=O)O)cc1 (stereo not given) ?
inactive

Likewise for Cc1ccc(S(=O)(=O)N/N=C/C(Br)=C(/Br)C(=O)O)cc1 ?
inactive

Likewise for COc1ccc2c(c1)CC1c3c(ccc(OC)c3O)CC2N1C (stereo not given) ?
inactive

Likewise for CCOc1ccc2nc(NC(=O)c3c/c(=N\NC(=O)C[N+](C)(C)C)c4ccc(O)cc4o3)sc2c1 ?
inactive

Likewise for Nc1ncnc2c1ncn2C1OC(CO)C(O)C1NS(=O)(=O)c1ccccc1 (stereo not given) ?
inactive

Likewise for C[Si](C)(C)C(Sc1ccccc1)(Sc1ccccc1)Sc1ccccc1 ?
inactive

Likewise for CC(C)NC(=O)OCc1c(COC(=O)NC(C)C)c(-c2ccc[n+](COC(=O)CC(C)(C)C)c2)n2c1CCC2 ?
inactive

Likewise for CCCCCc1cc2c(cc1O)CC[C@@H]1[C@@H]2CC[C@]2(C)[C@@H](O)CC[C@@H]12 ?
inactive

Likewise for C/C(=N\NC(=S)N1CCCCCCCCCCCC1)c1ccccn1 ?
active
